Test system: Plasmodium berghei
Experiment: Luciferase/luciferin-expressing antifolate-resistant parasites were used to infect a culture of HepG2 cells that were pre-incubated with compounds. Infected hepatocytes emit light due to the luciferase reaction. Assay results are presented as the percent inhibition of light emission compared to control. […]
Type: functional
Conditions: sporozoite, PBLUC_HILL_SLOPE 1.04, 1.87, PBLUC_R_SQUARED 0.121, 0.671, read-out: LUCIFERASE INFECTION ASSAY - IC50
value kind: IC50

>>> value_reported("OC(c1ccc(Nc2nc3ccccc3s2)cc1)(C(F)(F)F)C(F)(F)F")
"5.01 µM"

###

Test system: Plasmodium berghei
Test: Luciferase/luciferin-expressing antifolate-resistant parasites were used to infect a culture of HepG2 cells that were pre-incubated with compounds. Infected hepatocytes emit light due to the luciferase reaction. Assay results are presented as the percent inhibition of light emission compared to control. […]
Assay type: functional
Details: sporozoite, PBLUC_HILL_SLOPE 10.3, PBLUC_R_SQUARED 0.121, read-out: LUCIFERASE INFECTION ASSAY - IC50
pIC50: −log10 of the molar value.
value kind: pIC50

>>> value_reported("COCCNC(=S)Nc1ccccc1CC(c1c[nH]c2ccccc12)c1c[nH]c2ccccc12")
5.03
